System: CP194
Assay: qHTS profiling for inhibitors of Plasmodium falciparum proliferation (AID 504749); note: nearly all actives have a fitted effect of over 60% in size
Details: P. falciparum in erythrocytes, SYBR Green DNA, 72 h; series mostly up to 28.7 µM
Records with an inconclusive call do not appear. Activity calls are given as the source filed them. Calls come from the whole dose curve; as a rule, active = well fitted inhibition curve with a large enough effect; inconclusive = small, poorly fitted or top-dose-only effect; inactive = flat fitted curve, though single readings scatter.
Outcome codes: YES for active, NO for inactive

>>> discrete_label("Cc1c(OCC(F)(F)F)ccnc1CS(=O)c1nc2ccccc2[nH]1 (stereo unspecified)")
"NO"
>>> discrete_label("COc1ccc2cc([C@H](C)C(=O)O)ccc2c1")
"NO"
>>> discrete_label("Cn1c(NCCN(CCO)CCCc2ccc([N+](=O)[O-])cc2)cc(=O)n(C)c1=O")
"NO"
>>> discrete_label("Cc1cccc(C)c1OCC(=O)N[C@@H](Cc1ccccc1)[C@@H](O)C[C@H](Cc1ccccc1)NC(=O)[C@H](C(C)C)N1CCCNC1=O")
"YES"
>>> discrete_label("N[C@@H](Cc1cc(I)c(Oc2cc(I)c(O)c(I)c2)c(I)c1)C(=O)O")
"NO"
>>> discrete_label("CCCOc1ccc2nc(NC(=O)OC)[nH]c2c1")
"NO"
>>> discrete_label("CCc1nc(N)nc(N)c1-c1ccc(Cl)cc1")
"NO"
>>> discrete_label("Clc1ccc(C(Cn2ccnc2)OCc2ccsc2Cl)c(Cl)c1 (stereo unspecified)")
"YES"
>>> discrete_label("CN1C(C(=O)Nc2ccccn2)=C(O)c2sccc2S1(=O)=O")
"NO"
>>> discrete_label("Nc1cc(C(Cl)=C(Cl)Cl)c(S(N)(=O)=O)cc1S(N)(=O)=O")
"NO"
>>> discrete_label("CCOC(=O)c1c(C)n(C)c2ccc(O)cc12")
"NO"
>>> discrete_label("Cc1cc(=O)oc2cc(O)ccc12")
"NO"
>>> discrete_label("O=C(NC(Cc1cc(=O)[nH]c2ccccc12)C(=O)O)c1ccc(Cl)cc1 (stereo unspecified)")
"NO"
>>> discrete_label("O=C(O)c1cccnc1Nc1cccc(C(F)(F)F)c1")
"NO"
>>> discrete_label("c1ccc2[nH]c(-c3cscn3)nc2c1")
"NO"
>>> discrete_label("NNc1nncc2ccccc12")
"NO"
>>> discrete_label("C[C@H](Cn1cnc2c(N)ncnc21)OCP(=O)(O)O")
"NO"
>>> discrete_label("CNC[C@H](O)c1ccc(O)c(O)c1")
"NO"
>>> discrete_label("CNC[C@@H](O)[C@@H](O)[C@H](O)[C@H](O)CO")
"NO"
>>> discrete_label("C=CCc1cc(OC)c(O)c(C(=O)NCCO)c1")
"NO"
>>> discrete_label("CS(=O)(=O)OCCCCOS(C)(=O)=O")
"NO"
>>> discrete_label("Cc1ccc(C)c(OCCCC(C)(C)C(=O)O)c1")
"NO"
>>> discrete_label("O=c1oc2cc(O)ccc2s1")
"NO"
>>> discrete_label("CC1(C)NC(=O)N(c2ccc([N+](=O)[O-])c(C(F)(F)F)c2)C1=O")
"NO"
>>> discrete_label("O=C(O)CCNC(=O)c1ccc(N=Nc2ccc(O)c(C(=O)O)c2)cc1")
"NO"
>>> discrete_label("CN(C)CCc1c[nH]c2ccc(Cn3cncn3)cc12")
"NO"
>>> discrete_label("Nc1cccc2c1CN(C1CCC(=O)NC1=O)C2=O (stereo unspecified)")
"NO"
>>> discrete_label("CCC(C)(Oc1ccc(C2(c3ccc(OC(C)(CC)C(=O)O)cc3)CCCCC2)cc1)C(=O)O (stereo unspecified)")
"NO"
>>> discrete_label("CC1(C)CCC(C)(C)c2cc(NC(=O)c3ccc(C(=O)O)cc3)ccc21")
"NO"
>>> discrete_label("Cc1cc2c(s1)Nc1ccccc1N=C2N1CCN(C)CC1")
"NO"
>>> discrete_label("Cc1nc2n(c(=O)c1CCN1CCC(c3noc4cc(F)ccc34)CC1)CCCC2")
"NO"
>>> discrete_label("CC(C)[C@H](N)C(=O)OCCOCn1cnc2c(=O)[nH]c(N)nc21")
"NO"
>>> discrete_label("CCOc1cc(CC(=O)N[C@@H](CC(C)C)c2ccccc2N2CCCCC2)ccc1C(=O)O")
"NO"
>>> discrete_label("Nc1ccc(S(N)(=O)=O)cc1")
"NO"
>>> discrete_label("COc1cc(OC)c(C(=O)CCCN2CCCC2)c(OC)c1")
"NO"
>>> discrete_label("CN(C)C(=O)COC(=O)Cc1ccc(OC(=O)c2ccc(N=C(N)N)cc2)cc1")
"NO"
